- ASSAYED_SYSTEM: vanilloid receptor (VR1) (Homo sapiens, UniProt Q8NER1)
- Construct: expressed in transfected cells; host or cells: CHO K1 cells (ECACC), stably transfected
- Sequence (Q8NER1 whole entry): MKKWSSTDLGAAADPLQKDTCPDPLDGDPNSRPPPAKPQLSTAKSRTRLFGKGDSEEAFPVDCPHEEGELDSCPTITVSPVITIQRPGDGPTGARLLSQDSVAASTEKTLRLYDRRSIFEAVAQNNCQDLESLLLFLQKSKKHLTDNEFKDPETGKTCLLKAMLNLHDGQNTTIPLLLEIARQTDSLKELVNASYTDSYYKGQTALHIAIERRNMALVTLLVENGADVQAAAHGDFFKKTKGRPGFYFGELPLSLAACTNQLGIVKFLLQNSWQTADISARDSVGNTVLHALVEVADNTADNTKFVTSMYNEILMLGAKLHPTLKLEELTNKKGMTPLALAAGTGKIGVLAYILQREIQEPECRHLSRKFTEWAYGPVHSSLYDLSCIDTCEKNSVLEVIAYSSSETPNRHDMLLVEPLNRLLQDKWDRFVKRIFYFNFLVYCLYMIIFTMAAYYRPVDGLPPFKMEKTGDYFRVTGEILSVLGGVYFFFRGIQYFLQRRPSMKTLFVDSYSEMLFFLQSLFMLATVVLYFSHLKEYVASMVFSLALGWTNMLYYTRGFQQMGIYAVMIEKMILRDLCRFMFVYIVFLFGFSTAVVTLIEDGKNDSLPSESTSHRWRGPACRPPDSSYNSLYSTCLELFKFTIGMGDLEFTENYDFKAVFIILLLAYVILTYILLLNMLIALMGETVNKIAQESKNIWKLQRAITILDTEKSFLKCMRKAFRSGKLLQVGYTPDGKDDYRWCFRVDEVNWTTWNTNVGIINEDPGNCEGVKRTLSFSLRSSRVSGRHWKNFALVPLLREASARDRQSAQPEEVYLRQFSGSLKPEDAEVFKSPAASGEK
- PROCEDURE_DETAILS: FLIPR Ca2+ influx assay on CHO K1 cells transfected with the VR1 gene (pharmacological method II)
- Type: cell-based
- MEASUREMENT_PARAMETERS: table 4; capsaicin; read-out: Ki (human) Cap.
RESULT_TYPE: Ki (nM)
Express your answer in nM, writing the number without its unit.

{"columns": ["COMPOUND", "UNIT_LABEL", "Ki"],
 "data": [
  ["CC(C(=O)NCc1ccc(C(F)(F)F)nc1N1CCCC1)c1ccc(NS(C)(=O)=O)c(Br)c1 (stereo not drawn)", "nM", 2.8],
  ["CC(C(=O)NCc1ccc(C(F)(F)F)cc1N1CCC(Cc2ccccc2)CC1)c1ccc(NS(C)(=O)=O)c(F)c1 (stereo not drawn)", "nM", 1.4]
]}

Give its Ki value. Item: CC(C(=O)NCc1ccc(C(F)(F)F)cc1N1CCC(C(F)(F)F)CC1)c1ccc(NS(C)(=O)=O)c(F)c1 (stereo not drawn) 0.4

So what's the measured Ki for this one? CC1CCN(c2nc(C(F)(F)F)ccc2CNC(=O)C(C)c2ccc(NS(C)(=O)=O)cc2)CC1 (stereo not drawn) 1.2

###

- ASSAYED_SYSTEM: VR1/TRPV1 receptor (Homo sapiens, UniProt Q8NER1)
- Sequence (Q8NER1 whole entry): as above
- PROCEDURE_DETAILS: IC50 (human) after pH stimulus
- Type: cell-based
- MEASUREMENT_PARAMETERS: table 4
RESULT_TYPE: pIC50
Please treat pIC50 as minus the base-10 logarithm of the molar concentration.

{"columns": ["MOLECULE", "ASSAYED_SYSTEM", "pIC50"],
 "data": [
  ["CCCCCOc1nc(C(C)(C)C)ccc1CNC(=O)C(C)c1ccc(NS(C)(=O)=O)c(F)c1 (stereo not shown) [Example 328]", "VR1/TRPV1 receptor (Homo sapiens, UniProt Q8NER1)", 6.89],
  ["COc1ccc(-c2cc(C(F)(F)F)ccc2CNC(=O)C(C)c2ccc(NS(C)(=O)=O)c(F)c2)cc1 (stereo not shown) [Example 321]", "VR1/TRPV1 receptor (Homo sapiens, UniProt Q8NER1)", 7.42],
  ["CC(C(=O)NCc1ccc(C(F)(F)F)nc1C1CCCCC1)c1ccc(NS(C)(=O)=O)c(F)c1 (stereo not shown) [Example 291]", "VR1/TRPV1 receptor (Homo sapiens, UniProt Q8NER1)", 7.36],
  ["COc1cc(COc2nc(C(F)(F)F)ccc2CNC(=O)C(C)c2ccc(NS(C)(=O)=O)c(F)c2)cc(OC)c1 (stereo not shown) [Example 363]", "VR1/TRPV1 receptor (Homo sapiens, UniProt Q8NER1)", 7.12]
]}

// returns reported pIC50 for input CC1CCC(Oc2nc(C(F)(F)F)ccc2CNC(=O)C(C)c2ccc(NS(C)(=O)=O)c(F)c2)CC1 (stereo not shown) [Example 157] 7.37

I am curious: what pIC50 value has been reported for CC(C(=O)NCc1ccc(C(F)(F)F)nc1N1Cc2ccccc2C1)c1ccc(NS(C)(=O)=O)c(F)c1 (stereo not shown) [Example 188] ? 6.72

For the molecule CC(C(=O)NCc1ccc(C(F)(F)F)nc1OCCC(C)(C)C)c1ccc(NS(C)(=O)=O)c(F)c1 (stereo not shown) [Example 125] , what pIC50 is on record? 7.62
